thermal shift delta Tm values, listed per item
Tested on: LOC_OS04G41100-cb001;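 further: purified Escherichia coli-expressed rice kinase domain construct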
Sequence (as listed by the source): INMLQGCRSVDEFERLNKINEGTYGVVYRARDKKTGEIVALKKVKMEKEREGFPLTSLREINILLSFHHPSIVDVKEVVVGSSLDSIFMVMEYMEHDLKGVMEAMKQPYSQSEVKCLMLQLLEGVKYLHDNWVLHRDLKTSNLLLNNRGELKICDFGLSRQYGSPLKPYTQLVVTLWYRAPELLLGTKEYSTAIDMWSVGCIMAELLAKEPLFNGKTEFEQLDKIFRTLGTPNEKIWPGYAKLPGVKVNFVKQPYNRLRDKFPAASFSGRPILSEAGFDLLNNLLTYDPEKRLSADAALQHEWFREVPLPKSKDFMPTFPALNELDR
Assay: thermal shift delta Tm vs DMSO control; higher = stronger stabilization (binding)
Settings: 12.5 µM; protein concentration 2 µM
Measured endpoint: thermal shift delta Tm

CC(C)n1ncnc1-c1cn2c(n1)-c1ccc(O[C@@H](C)C(N)=O)cc1OCC2: 0.13 °C
C#Cc1cccc(Nc2ncnc3cc(OCCOC)c(OCCO)cc23)c1: 0.13 °C
Cc1[nH]nc2ccc(-c3cncc(OC[C@@H](N)Cc4ccccc4)c3)cc12: 1.9 °C
O=C1c2c(O)cc(O)cc2OC(c2ccc(O)c(O)c2)C1O (stereo not given) [Taxifolin (Dihydroquercetin)]: 0.5 °C
CNC(=O)c1ccccc1Nc1nc(Nc2ccc(N3CCOCC3)cc2OC)ncc1Cl: 0.51 °C
